conditions: 298.15 K; 101.3 kPa; Liquid; Vibrating tube method
± gives the expanded uncertainty stated by the source.
Endpoint: mass density
Note: a bare number is incomplete; add the unit.

Qu. For the compound shown here, CCCCCCC , give the reported mass density.
Ans. 683.8 ± 0.3 kg/m3

Qu. Now consider CCO and answer again.
Ans. 789.5 ± 0.2 kg/m3

Qu. Input CC1(C)OCCO1
Ans. 944.2 ± 0.3 kg/m3

Qu. Cool, now Cc1ccccc1
Ans. 866.9 ± 0.2 kg/m3
